# Test system: K4 kissing-loop RNA reporter;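 also: bound reporter read as fluorescence of individual clusters on recovered sequencing chips by microscopy, with normalized cluster intensities fitted with a binding model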
# experiment: apparent KD of K4 kissing-loop reporter; higher = weaker reporter binding
# protocol-conditions: Eterna round: R107; input ligand: none
Listed sequences paired with reported apparent KD of K4 kissing-loop reporter
Write the value in nM as a bare number.

For orientation, consider the following solved cases.
UGUGCCAACAGUGAUACCAGCGUGGAGUGAUGUUCCGAGGAUCGGAGUGAUGUUCCGAAGCGCCCUUGGCAGCGCAGAAGCGCGA [Exclusion Theophylline B GF 26]    186
UCUGCAAAGUCGGCCGCCACUCCGGGCCCUAUAAAUGGGCGCAGUGAUGUUGCGGCUAGGCCUCUGAGGACCGGGACUUUAUAGA [Anarisgema]    184
CGCCGCAAGGCGAGCGCUCCCACUCCGGAAGGAGCGCCCGAAAGGGCAGGUAGGUCGCCGGAGUGAUGUUCCGGUGGAGGGCUCG [#2 Exclusion - Arginine A Attempt #27 (Inspired by Omei)]    432

apparent KD of K4 kissing-loop reporter value, target or system K4 kissing-loop RNA reporter, for CCUAUCUCAUACGAUACCAGUCUAUUGUUACGAGUGAUGUUCGAAUAUUUGCCAUUCAAUGACCCUUGGCAGCGUAUGGGAUAGG [Ex Theophylline B K4 10] : 525

apparent KD of K4 kissing-loop reporter value, target or system K4 kissing-loop RNA reporter, for GAUAUAGUGAUGUUAUAUACUGAUAGACAACGAGGACCGGUACGGCCGCCACUCGAGAGGGUGAAAUUAAUGAUAAAAUAAUAAU [ExyTryA#2] : 356

apparent KD of K4 kissing-loop reporter value, target or system K4 kissing-loop RNA reporter, for UGUACCGAGUCAGGAUAUCAACGACUGACAAAAGUCGGUCGAAUAUCCAGUGAUGUUGGAAAUAAAUGAGAAGGGACUUGGUACU [FmnBS 14 #SwitchBubble #StaticStem] : 276
